Tested On: T1, histidine-tagged human thymidylate synthase (ht-hTS) (human, UniProt P04818 1-313)
T1 construct: also called human TS
T1 sequence (P04818 other isoform, or with tags, fused parts or gaps limits assumed): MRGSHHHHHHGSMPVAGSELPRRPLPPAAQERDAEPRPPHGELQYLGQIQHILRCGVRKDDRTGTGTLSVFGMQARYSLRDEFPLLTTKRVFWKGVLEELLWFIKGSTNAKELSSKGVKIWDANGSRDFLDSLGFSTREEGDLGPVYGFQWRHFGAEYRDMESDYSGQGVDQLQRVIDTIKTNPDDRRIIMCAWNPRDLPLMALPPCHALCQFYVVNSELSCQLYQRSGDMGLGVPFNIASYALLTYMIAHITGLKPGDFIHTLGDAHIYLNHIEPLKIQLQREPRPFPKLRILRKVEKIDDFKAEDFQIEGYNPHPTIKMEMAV
Assay Protocol: hTS enzyme inhibition assay (peptide pre-incubated with hTS, then mTHF and dUMP, absorbance at 340 nm); third bar group
Labelling field: enter yes if recorded IC50 is less than 400 µM. Enter no if it equals or exceeds that cut-off.

Consider the following illustrative entries.
Binder	Group
DFAHTLGD [SEQ ID NO: 7]	yes
DFIHALGD [SEQ ID NO: 9]	yes

Exercise: Is 400 µM strictly greater than the binder's reported IC50? binder: DAIHTLGD [SEQ ID NO: 6]
Solution: yes

Exercise: Now this one: DFIHTLGA [SEQ ID NO: 12]
Solution: yes

Exercise: Quick one: DFIHTLAD [SEQ ID NO: 11]
Solution: yes

Exercise: Cool, now AFIHTLGD [SEQ ID NO: 5]
Solution: no

Exercise: Same question for DFIATLGD [SEQ ID NO: 8] please.
Solution: no

Exercise: Then what about the binder DFIHTAGD [SEQ ID NO: 10] ?
Solution: no
